- Assay remarks: Pharmacokinetic evaluation: plasma concentration in rats
- Format: in vivo, Male SD rats
- Condition context: rat, plasma; iv 10 mg/kg, 8 h
- Description: (4) Pharmacokinetic evaluations Male SD rats ([…]) were divided into groups each consisting of three animals. […] Furthermore, cilastatin was intravenously administered to a 14th group as a control group. Plasma samples were taken periodically from the carotid artery through a cannula inserted into it at the points of 1/12, 1/4, 1/2, 1, 2, 4, 6, 8 and 24 hours after the administration. The area under the curve (AUC) of the plasma concentration was determined according to the trapezoidal rule.
Reported property: concentration at 8 h (ng/mL)

# example entries with known answers
>>> recorded_result("CC1(C)CC1P(=O)(O)C/C(=C\\C1CCCCC1)C(=O)O (centres unmarked)")
900
>>> recorded_result("CC(C)CP(=O)(O)C/C(=C\\C1CCCCC1)C(=O)O")
2500

[P] CC(C)CP(=O)(O)C/C(=C\C1CC1)C(=O)O
[Q] O=C(O)/C(=C/C1CCCCC1)CP(=O)(O)CC1CCCCC1
[R] O=C(O)/C(=C/C1CCCCC1)CP(=O)(O)CC1CCCC1
Ask: Sort low-to-high on concentration at 8 h, please. I'd appreciate it if you listed the labels in the requested order.
Result: P, Q, R
(P: 200 ng/mL, Q: 1000 ng/mL, R: 6400 ng/mL)

====

- Assay remarks: Pharmacokinetic evaluation: plasma concentration in dogs
- Assay type: in vivo, Male beagle dogs
- Condition context: dog, iv 10 mg/kg, 1/12 h
Reported property: concentration at 5 min (µg/mL)
Number in µg/mL, nothing else.

Ask: Which concentration at 5 min is listed for `CC(C)CP(=O)(O)C/C(=C\C1CCCCC1)C(=O)O` ?
Result: 87.3

====

- Assay remarks: Pharmacokinetic evaluation: plasma concentration in dogs
- Format: in vivo, Male beagle dogs
- Condition context: dog, po 10 mg/kg, 8 h
- Method: Male beagle dogs (14 month-old) were divided into groups each having three animals. The compound No. 2 was administered intravenously to a first group in a dose of 10 mg/kg. […] Then at the points of 1/12, 1/4, 1/2, 1, 2, 4, 6, 8, 24 and 48 hours after the administration, plasma samples were taken periodically from the cephalic vein, and the plasma concentrations of the compounds were measured by an enzyme assay using porcine DHP-I. The results are shown in Table 4-b. […]
Reported property: concentration at 8 h (ng/mL)
Number in ng/mL, nothing else.

Ask: Which concentration at 8 h is listed for CC(C)CP(=O)(O)C/C(=C\C1CCCCC1)C(=O)O [Compound No. 2] ?
Result: 700

====

- Assay remarks: Pharmacokinetic evaluation: plasma concentration in rats
- Type: in vivo, Male SD rats
- Condition context: rat, plasma; iv 10 mg/kg (cilastatin dose not given), 1/4 h
Reported property: concentration at 0.25 h (ng/mL)

>>> recorded_result("CC(C)CP(=O)(O)C/C(=C\\CCCC(=O)O)C(=O)O")
11300

[A] O=C(O)/C(=C/C1CCCCC1)CP(=O)(O)CC1CCCC1
[B] O=C(O)/C(=C/C1CCCCC1)CP(=O)(O)CC1CCCCC1
Ask: // compare measured concentration at 0.25 h between A and B ; output the lower one Indicate which entry you chose by stating its label.
Result: B
(B: 40600 ng/mL, A: 74700 ng/mL)

[a] CC(C)CP(=O)(O)C/C(=C\C1CC1)C(=O)O
[b] CC1(C)CC1P(=O)(O)C/C(=C\C1CCCCC1)C(=O)O (stereo not shown)
Ask: From the recorded data, which exceeds the other in concentration at 0.25 h: a or b ? Indicate which entry you chose by stating its label.
Result: b
(b: 49400 ng/mL, a: 26500 ng/mL)
